Test system: HIV-1NL4-3
Method Description: P4-MAGI assay
Format: cell-based
Condition Context: Human immunodeficiency virus 1, 24 h, P4 cells, 24 hour incubation, β-galactosidase expression; read-out: P4-MAGI IC50
The reader will find reported IC50 values listed item by item below.
The answer is to be given in nM; state only the numeric part.

Prompt line: Consider the compound C=C(C)[C@@H]1CC[C@]2(C(=O)NCCc3cccc(C(=O)NCc4ccc(C(=O)N[C@H](CC(=O)OC)C(=O)OC)cn4)c3)CC[C@]3(C)C(CCC4[C@@]5(C)CC[C@H](O)C(C)(C)C5CC[C@]43C)C12 (stereo partly drawn) [Example 221] and give its measured IC50.
Response line: 9

Prompt line: Consider the compound C=C(C)[C@@H]1CC[C@]2(C(=O)NCc3cccc(C(=O)NCCc4ccc(S(N)(=O)=O)cc4)c3)CC[C@]3(C)C(CCC4[C@@]5(C)CC[C@H](O)C(C)(C)C5CC[C@]43C)C12 (stereo partly drawn) [Example 45] and give its measured IC50.
Response line: 15.9

Prompt line: Consider the compound C=C(C)[C@@H]1CC[C@]2(C(=O)NCc3cccc(C(=O)NCCc4ccc(C(=O)O)cc4)c3)CC[C@]3(C)C(CCC4[C@@]5(C)CC[C@H](O)C(C)(C)C5CC[C@]43C)C12 (stereo partly drawn) [Example 9] and give its measured IC50.
Response line: 22.3
